# assay_protocol: growth inhibitors of anaerobic choline-fed gram-negatives, minimal medium, absorbance (AID 1963822)
# run_parameters: Gram-negative bacterium anaerobic choline minimal medium, measured here: choline growth z-score, timepoint 1, stronger effect = lower value
About 90 (0.2%) of roughly 55,000 compounds were called active. This is one part of a sample in which actives are shown more often than they occur.
endpoint_label: z-score
Respond using a number only.

q: For the compound `O=C(Cc1csc(NC(=O)Nc2ccc(Cl)cc2)n1)Nc1cccc(Cl)c1` , give its reported z-score.
a: -1.2

q: For the compound Cc1noc2c1C(c1ccc(Cl)cc1)C1=C(CC(c3ccc(O)cc3)CC1=O)N2 (configuration not stated) , give its reported z-score.
a: 0.58

q: For the compound `CCCN(CCC)CCNc1cc(C)nc2c(-c3ccccc3OC)c(C)nn12` , give its reported z-score.
a: -0.02

q: For the compound `O=S(=O)(c1ccc2c(c1)-c1oncc1CO2)N1CCN(C(c2ccccc2)c2ccccc2)CC1` , give its reported z-score.
a: -0.77

q: For the compound `Cc1nn(CC(=O)NCCc2c[nH]c3ccccc23)c(=O)c2noc(C)c12` , give its reported z-score.
a: -0.02

q: For the compound O=C(Nc1ccccc1F)C1CC(=O)N(CCc2c[nH]c3ccc(F)cc23)C1 (configuration not stated) , give its reported z-score.
a: 0.17

q: For the compound `O=S(=O)(c1ccccc1)c1ccc(N2CCN(c3ccccc3)CC2)nn1` , give its reported z-score.
a: -1.06

q: For the compound `CCOc1ccc(NC(=O)NCCn2c(C(F)(F)F)nc3ccccc32)cc1` , give its reported z-score.
a: 0.45

q: For the compound `Cc1nn(-c2ccccc2)c2sc(C(=O)N3CCN(c4cccc(Cl)c4)CC3)cc12` , give its reported z-score.
a: 1.5

q: For the compound `CCCCC(=O)Nc1cc(N2CCn3c(nc4ccccc43)C2)ccc1C` , give its reported z-score.
a: 0.09

q: For the compound `CCC(=O)Nc1nc2cc(NC(=O)Nc3cccc(Cl)c3)ccc2s1` , give its reported z-score.
a: -0.84

q: For the compound `Cc1csc2ncc(C(=O)N3CCCCCC3)c(=O)n12` , give its reported z-score.
a: -0.07

q: For the compound `COc1ccnc2c1c(=O)n(CC(=O)N1CCCc3ccccc31)c(=O)n2C` , give its reported z-score.
a: 0.31

q: For the compound `CCc1ccc(NS(=O)(=O)c2cc(-c3nc(C(C)C)cs3)cs2)cc1` , give its reported z-score.
a: 0.54

q: For the compound `Cc1nc(-c2csc(S(=O)(=O)NCc3ccccc3Cl)c2)sc1C` , give its reported z-score.
a: -0.18

q: For the compound `c1ccc(CCNc2c3c(nc4nncn24)CCC3)cc1` , give its reported z-score.
a: 0.78

q: For the compound `COCC(=O)Nc1ccc(-c2nc3ccccc3s2)cc1` , give its reported z-score.
a: -0.43

q: For the compound `COc1ccc(NC(=O)c2cccc(-c3nc(-c4ccc(F)cc4)no3)c2)cc1OC` , give its reported z-score.
a: -0.62

q: For the compound `O=C(NCCN1CCOCC1)C1CCN(c2cncnc2N2CCCCC2)CC1` , give its reported z-score.
a: 0.79

q: For the compound `O=C(Cc1nnc(NC(=O)Nc2cccc(Cl)c2)s1)NCc1ccccc1` , give its reported z-score.
a: 0.9

q: For the compound `COc1cc2[nH]c(=O)n(CCCC(=O)NCCCN3CCN(c4cccc(Cl)c4)CC3)c(=O)c2cc1OC` , give its reported z-score.
a: 0.11

q: For the compound `CCC(=O)NCCc1nc2cc(NC(=O)C3CCCCC3)ccc2n1C` , give its reported z-score.
a: -0.11

###

# assay_protocol: growth inhibitors of anaerobic choline-fed gram-negatives, minimal medium, absorbance (AID 1963822)
# run_parameters: Gram-negative bacterium anaerobic choline minimal medium, stronger effect = lower value
Among all 55,000 compounds or so, about 90 (0.2%) were called active. The list comes from a sample in which actives are over-represented; it also holds close analogues and randomly drawn compounds.
Consider the cut-off 0.8. If the recorded z-score is strictly smaller, the label is true (1); if not, the label is false (0).

q: Quick check: does `O=C1CN(C(=O)CSc2ccc(Cl)cc2)c2ccccc2N1` have z-score under 0.8?
a: true (1)

q: Quick check: does `O=C(CCc1nc(CSc2nnc(-c3ccccc3)o2)no1)Nc1ccc(F)c(Cl)c1` have z-score under 0.8?
a: true (1)

q: Quick check: does O=C(O)c1c[nH]c2ccc(S(=O)(=O)NC3CCCCNC3=O)cc2c1=O (stereo not given) have z-score under 0.8?
a: false (0)

q: Quick check: does `Cc1nc(N2CCCC2)ncc1C(=O)N1CCCCC1` have z-score under 0.8?
a: false (0)

###

# assay_protocol: growth inhibitors of anaerobic choline-fed gram-negatives, minimal medium, absorbance (AID 1963822)
# run_parameters: Gram-negative bacterium anaerobic choline minimal medium, measured here: choline growth z-score, timepoint 1, stronger effect = lower value
The whole screen tested about 55,000 compounds, of which about 90 (0.2%) were called active. This excerpt belongs to a sample that is enriched for actives.
Can you tell me z-score for the items I'm about to list?
Respond using a number only.

q: For the compound `COc1cccc(NC(=O)c2ccc(-n3nc(N4CCCC4)ccc3=O)cc2)c1` , give its reported z-score.
a: -0.77

q: For the compound CCCCC/C=C\CC1OC1CCCCCCCC(=O)O (stereo not drawn) , give its reported z-score.
a: -3.13

q: For the compound `COc1ccc(-c2cc3nc(C)cc(N4CCOCC4)n3n2)cc1OC` , give its reported z-score.
a: -0.41

q: For the compound `O=C(Nc1ccc2c(c1)OCCO2)c1cccc(Oc2ccnc(-c3ccc(F)cc3)n2)c1` , give its reported z-score.
a: 0.77

q: For the compound `CCOc1ccc(NC(=O)Nc2ccc(Cn3cnc(-c4nc(-c5ccc(Cl)cc5)no4)c3)cc2)cc1` , give its reported z-score.
a: 0.58

q: For the compound COc1ccc(C2N=C(Nc3ccc(C(C)C)cc3)Nc3nc(C)cc(=O)n32)cc1OC (stereo not drawn) , give its reported z-score.
a: -0.84

q: For the compound `Cc1cc(C)n(CCc2nc(-c3ccc(Cl)cc3)no2)n1` , give its reported z-score.
a: -1.19

q: For the compound `CCCCC/C=C\C/C=C\CCCCCCCCCC(=O)O` , give its reported z-score.
a: -3.23

q: For the compound COc1cc(C2Nc3c(C)cc(C)cc3[C@H]3OCC[C@@H]23)cc(Br)c1OC (stereo partly drawn) , give its reported z-score.
a: 0.1

q: For the compound `CC(C)CSc1nn(C)c2nc3c(c(=O)n12)C(C)(C)Cc1ccccc1-3` , give its reported z-score.
a: -0.98

q: For the compound `CCCCCCCC/C=C\CCCCCCCC(=O)OC[C@H](CO)OC(C)=O` , give its reported z-score.
a: 0.34

q: For the compound `COc1ccc(CSc2nccc3c2ccn3CC(=O)NCc2ccc3c(c2)OCO3)cc1` , give its reported z-score.
a: 1.27

q: For the compound `CCCCC[C@@](C)(O)/C=C/[C@H]1C=CC(=O)[C@@H]1C/C=C\CCCC(=O)O` , give its reported z-score.
a: 0.66

###

# assay_protocol: growth inhibitors of anaerobic choline-fed gram-negatives, minimal medium, absorbance (AID 1963822)
# run_parameters: Gram-negative bacterium anaerobic choline minimal medium, measured here: choline growth z-score, timepoint 1, stronger effect = lower value
In all, about 55,000 compounds went through this assay and about 90 (0.2%) were called active. This excerpt belongs to a sample that is enriched for actives.
endpoint_label: z-score
Respond using a number only.

q: For the molecule `COc1cccc(CSc2nc3c(-c4ccccc4)c[nH]c3c(=O)[nH]2)c1` , give its reported z-score.
a: -0.28

q: For the molecule `CCOc1ccc(N(Cc2nc3nc(C)cc(C)n3n2)C(=O)CC(C)C)cc1` , give its reported z-score.
a: -1.11

q: For the molecule CCOC(=O)c1cnc(SC(CC)C(=O)Nc2ccc(Br)cc2)nc1N (stereo not given) , give its reported z-score.
a: 0.87

q: For the molecule `CCOc1ccc(CNC(=O)C2(NS(=O)(=O)c3cccc4cccnc34)CCCCC2)cc1` , give its reported z-score.
a: 0.16

q: For the molecule `CCC1(CC)Cc2ccccc2-c2[nH]c(=O)n(CC3=CCCO3)c(=O)c21` , give its reported z-score.
a: -1.14

q: For the molecule CCC(C(=O)Nc1ccccc1OC)n1nc(-c2ccccc2)ccc1=O (stereo not given) , give its reported z-score.
a: -0.44

q: For the molecule `COc1cccc(-n2ccnc2SCc2nc(-c3ccccc3)no2)c1` , give its reported z-score.
a: 0.33

q: For the molecule `COc1ccc(NC(=O)C2CCN(C(=O)c3ccc(-c4noc(C)n4)cc3)CC2)cc1OC` , give its reported z-score.
a: -0.71

q: For the molecule COc1ccc(OC)c(CNC(=O)C2CCCN(c3ncnc4c3oc3ccccc34)C2)c1 (stereo not given) , give its reported z-score.
a: -0.94

q: For the molecule `Cc1sc2cc(C(=O)NCCN3CCN(C)CC3)[nH]c2c1CN1CCCCC1` , give its reported z-score.
a: -4.45

q: For the molecule `CC(C)(C)c1ccc(S(=O)(=O)NCc2nc(N)n(S(=O)(=O)c3ccc(C(C)(C)C)cc3)n2)cc1` , give its reported z-score.
a: 0.06

q: For the molecule `O=C(COc1ccccc1)Nc1noc(-c2ccccc2)n1` , give its reported z-score.
a: -0.92

q: For the molecule `CCOC(=O)CC1=CC(SCC(=O)c2cc(C)ccc2C)=Nc2ccccc2N1` , give its reported z-score.
a: 0.19

q: For the molecule COc1ccc2nc(-n3nc(C)c4c3NC(=O)CC4c3ccsc3)sc2c1 (stereo not given) , give its reported z-score.
a: -0.51

q: For the molecule `Cc1ccc(-n2nc(N3CCCN(C(=O)C4CCC4)CC3)ccc2=O)cc1C` , give its reported z-score.
a: 1.18

q: For the molecule `O=C(NCCCN1CCCCC1)c1cc2n(n1)CCCN(Cc1ccc(F)cc1)C2=O` , give its reported z-score.
a: -0.23

q: For the molecule CCC1Oc2cc(S(=O)(=O)N3CCCC(C(=O)N4CCc5ccccc54)C3)c(C)cc2NC1=O (stereo not given) , give its reported z-score.
a: -0.03

q: For the molecule `CN1CCN(CCNC(=O)c2cnc3sc4c(n3c2=O)CCC4)CC1` , give its reported z-score.
a: -0.3

q: For the molecule `CCCC(=O)Nc1cccc(OCc2cc(=O)n3ccccc3n2)c1` , give its reported z-score.
a: 0.6

q: For the molecule `CCOC(=O)c1cnc2c(-c3ccccc3)c(COc3ccccc3)nn2c1N` , give its reported z-score.
a: -0.12

q: For the molecule `CCC(C)(C)NC(=O)CN(C)S(=O)(=O)c1cc2c(cc1Cl)NC(=O)CO2` , give its reported z-score.
a: -0.29

q: For the molecule `O=S(=O)(Nc1ccc(F)cc1)c1cc(-c2noc(C3CC3)n2)cs1` , give its reported z-score.
a: -0.4

q: For the molecule `O=C1CN(Cc2ccccc2Cl)S(=O)(=O)c2ccccc2N1Cc1cccc(F)c1` , give its reported z-score.
a: 0.04

q: For the molecule `CNC(=O)c1ccc(NC(=O)N2CCCCc3ccccc32)cc1` , give its reported z-score.
a: -0.19

q: For the molecule `COc1ccc(NS(=O)(=O)c2cc(-c3nc(-c4ccccc4)no3)sc2C)cc1OC` , give its reported z-score.
a: -0.06

q: For the molecule `COc1cccc(-c2nn(Cc3ccc(C)cc3)c(=O)c3noc(C)c23)c1` , give its reported z-score.
a: -0.21

q: For the molecule `Cc1ccc(/C=C/c2nc(-c3ccc4c(c3)[nH]c(=O)c(=O)n4C(C)C)no2)cc1` , give its reported z-score.
a: -0.05

q: For the molecule `CN1CCN(S(=O)(=O)c2ccc3c(c2)C(C)(C)CN3CC(=O)N2CCCC2)CC1` , give its reported z-score.
a: 0.91

q: For the molecule `CC(C)n1cnc(S(=O)(=O)N2CCC(C(=O)N3CCCC3)CC2)c1` , give its reported z-score.
a: -0.23

q: For the molecule `O=C(Cn1cccc1-c1nc(-c2ccc(Cl)cc2)cs1)NCc1ccc2c(c1)OCO2` , give its reported z-score.
a: -0.44
